# Protocol Notes: pH solubility curve
# Type: physicochemical
# Experimental Setup: 0.03M methanesulphonic acid, pH 3.98, aqueous buffer, thermodynamic from solid
Experimental Endpoint: solubility (mg/mL)
Give bare numbers, in mg/mL.

Recorded solubility of Cc1nc(NNC(=O)[C@H](CC2CCCC2)CN(O)C=O)c(F)c(N2CCN3CCOC[C@@H]3C2)n1 [Example 1] , please.
13.9

---

# Protocol Notes: pH solubility curve
# Assay type: physicochemical
# Experimental Setup: 0.5M methanesulphonic acid, pH 3.39, aqueous buffer, thermodynamic from solid
Experimental Endpoint: solubility (mg/mL)
Give bare numbers, in mg/mL.

I'd like to know its solubility. The compound in question is Cc1nc(NNC(=O)[C@H](CC2CCCC2)CN(O)C=O)c(F)c(N2CCN3CCOC[C@@H]3C2)n1 [Example 1]
193

---

# Protocol Notes: pH solubility curve
# Format: physicochemical
# Experimental Setup: 1M methanesulphonic acid, pH 3.42, aqueous buffer, thermodynamic from solid
Experimental Endpoint: solubility (mg/mL)
Answers are plain numbers, in mg/mL.

Please look up its solubility: Cc1nc(NNC(=O)[C@H](CC2CCCC2)CN(O)C=O)c(F)c(N2CCN3CCOC[C@@H]3C2)n1 [Example 1]
347

---

# Protocol Notes: pH solubility curve
# Format: physicochemical
# Experimental Setup: thermodynamic from solid; Purified Water, pH 3.2; equilibrium not reached
Experimental Endpoint: solubility

Requested read-out: solubility. Entry: `Cc1nc(NNC(=O)[C@H](CC2CCCC2)CN(O)C=O)c(F)c(N2CCN3CCOC[C@@H]3C2)n1`
> 452 mg/mL

---

# Protocol Notes: pH solubility curve
# Type: physicochemical
# Experimental Setup: 0.01M methanesulphonic acid, pH 4.33, aqueous buffer, thermodynamic from solid
Experimental Endpoint: solubility (µg/mL)
Numbers only, in µg/mL.

What value of measured solubility is listed for `Cc1nc(NNC(=O)[C@H](CC2CCCC2)CN(O)C=O)c(F)c(N2CCN3CCOC[C@@H]3C2)n1` ?
4980

---

# Protocol Notes: pH solubility curve
# Format: physicochemical
# Experimental Setup: 0.05M methanesulphonic acid, pH 3.76, aqueous buffer, thermodynamic from solid
# Description: The pH solubility curve can be seen in Table 5 below.
Experimental Endpoint: solubility (mg/mL)
One number for each entry, in mg/mL.

What value of solubility has been reported for the following compound? `Cc1nc(NNC(=O)[C@H](CC2CCCC2)CN(O)C=O)c(F)c(N2CCN3CCOC[C@@H]3C2)n1`
22

---

# Protocol Notes: pH solubility curve
# Type: physicochemical
# Experimental Setup: 0.003M methanesulphonic acid, pH 4.86, aqueous buffer, thermodynamic from solid
Experimental Endpoint: solubility (µg/mL)
Answers are plain numbers, in µg/mL.

Dear colleague, I am looking for the recorded solubility of the following compound: `Cc1nc(NNC(=O)[C@H](CC2CCCC2)CN(O)C=O)c(F)c(N2CCN3CCOC[C@@H]3C2)n1`
1930
